# Tested on: HCV replication, genotype 1a (Huh-7 HCV replicon cell)
# EXPERIMENT_NOTES: Replicon ELISA cell based assay, genotype 1a
# CONDITION: Hepatitis C virus, Huh-7 HCV replicon cells, 72 hours, mean, assayed at least twice
TEST_READOUT: IC50

Some molecules with known IC50 results, for comparison:
CC(C)N(c1cc(-c2ccc(-c3cc4ncccn4n3)cc2)sc1C(=O)O)C(=O)[C@H]1CC[C@H](C(F)(F)F)CC1 | 0.1 to 0.5 µM
CC(C)N(c1cc(-c2ccc(-c3cc4ncccc4o3)s2)sc1C(=O)O)C(=O)[C@H]1CC[C@H](C)CC1 | 0.5 to 1 µM
CC(C)N(c1cc(-c2ccc(Cl)cc2)sc1C(=O)O)C(=O)[C@H]1CC[C@H](C)CC1 [Compound B, reference compound] | 1 to 5 µM
CC(C)N(C(=O)[C@H]1CC[C@H](C)C[C@H]1O)c1cc(-c2ccc(-c3cc4ncccn4n3)cc2)sc1C(=O)O | 0.01 to 0.05 µM
CC(C)N(c1cc(-c2ccc(-c3cc4cnccc4o3)cc2)sc1C(=O)O)C(=O)[C@H]1CC[C@H](C)CC1 [Example 12] | 0.1 to 0.5 µM

Report IC50 for every entry below.
1. CC(C)N(c1cc(-c2ccc(-c3ccc4nc[nH]c4c3)cc2)sc1C(=O)O)C(=O)[C@H]1CC[C@H](C)CC1
2. CC(C)N(c1cc(-c2ccc(-c3nc4ncccc4o3)cc2)sc1C(=O)O)C(=O)[C@H]1CC[C@H](C)CC1
3. Cc1ccn2nc(-c3ccc(-c4cc(N(C(=O)[C@H]5CC[C@H](C(F)(F)F)CC5)C(C)C)c(C(=O)O)s4)cc3)cc2n1
4. CCN(c1cc(-c2ccc(-c3cc4ncccn4n3)cc2)sc1C(=O)O)C(=O)[C@H]1CC[C@H](C)CC1
5. CC(C)N(c1cc(-c2ccc(-c3cc4nccc(N)n4n3)cc2)sc1C(=O)O)C(=O)[C@H]1CC[C@H](C)CC1
6. CC(=O)c1ccc(-c2cc(N(C(=O)[C@H]3CC[C@H](C)CC3)C(C)C)c(C(=O)O)s2)cc1 [Compound E, reference compound]

Output line:
0.1 to 0.5 µM
0.01 to 0.05 µM
0.1 to 0.5 µM
0.1 to 0.5 µM
< 0.005 µM
1 to 5 µM

====

# Tested on: HCV replication, genotype 1b (Huh-7 HCV replicon cell, sub-line 5-15)
# EXPERIMENT_NOTES: Replicon ELISA cell based assay, genotype 1b
# CONDITION: Hepatitis C virus, Huh-7 HCV replicon cells, genotype 1b (sub-line 5-15), 72 hours, mean, assayed at least twice
TEST_READOUT: IC50

Some compounds with known IC50 results, for comparison:
CC(C)N(c1cc(-c2ccc(-c3cc4ncccn4n3)nc2)sc1C(=O)O)C(=O)[C@H]1CC[C@H](C)CC1 [Example 34] | 50 to 100 nM
CC(C)N(c1cc(-c2ccc(-c3cc4ncccc4o3)nc2)sc1C(=O)O)C(=O)[C@H]1CC[C@H](C)CC1 [Example 18] | 10 to 50 nM
CC(=O)c1ccc(-c2cc(N(C(=O)[C@H]3CC[C@H](C)CC3)C(C)C)c(C(=O)O)s2)cc1 [Compound E, reference compound] | 1000 to 5000 nM
CC(C)N(c1cc(-c2ccc(-c3nc4cccc(O)c4o3)cc2)sc1C(=O)O)C(=O)[C@H]1CC[C@H](C)CC1 [Example 20] | 10 to 50 nM
CC(C)N(c1cc(-c2ccc(-c3cc4ncccc4o3)cc2)sc1C(=O)O)C(=O)[C@H]1CC[C@H](C)CC1 [Example 1] | 10 to 50 nM

Report IC50 for every entry below.
1. CC(C)N(c1cc(-c2ccc(-c3cn4ccccc4n3)cc2)sc1C(=O)O)C(=O)[C@H]1CC[C@H](C(F)(F)F)CC1 [Example 14]
2. Cc1cc(N)n2nc(-c3ccc(-c4cc(N(C(=O)[C@H]5CC[C@H](C)CC5)C(C)C)c(C(=O)O)s4)cc3)cc2n1 [Example 5]

Output line:
["500 to 1000 nM", "< 5 nM"]

====

# System: HCV replication, genotype 1b (Huh-7 HCV replicon cell, sub-line 5-15)
# EXPERIMENT_NOTES: Replicon ELISA cell based assay, genotype 1b
# CONDITION: Hepatitis C virus, Huh-7 HCV replicon cells, genotype 1b (sub-line 5-15), 72 hours, mean, assayed at least twice
pIC50: −log10 of the molar value.
What pIC50 was measured for each of the following?

Report pIC50 for every entry below.
1. CC(C)N(c1cc(-c2ccccc2)sc1C(=O)O)C(=O)[C@H]1CC[C@H](C)CC1 [Compound A, reference compound]
2. CC(C)N(c1cc(-c2ccc(-c3cn4ccccc4n3)cc2)sc1C(=O)O)C(=O)[C@H]1CC[C@H](C)CC1
3. CC(C)N(C(=O)[C@H]1CC[C@H](C)C[C@H]1O)c1cc(-c2ccc(-c3cc4ncccn4n3)cc2)sc1C(=O)O
4. CC(C)N(c1cc(-c2ccc(-c3cc4ccc(N)cc4o3)cc2)sc1C(=O)O)C(=O)[C@H]1CC[C@H](C)CC1

Output line:
1: 6.30 to 7.00; 2: 7.30 to 8.00; 3: 8.00 to 8.30; 4: 6.00 to 6.30

====

What pIC50 was measured for each of the following?
# System: HCV replication, genotype 1a (Huh-7 HCV replicon cell)
# EXPERIMENT_NOTES: Replicon ELISA cell based assay, genotype 1a
# CONDITION: Hepatitis C virus, Huh-7 HCV replicon cells, 72 hours, mean, assayed at least twice
pIC50: −log10 of the molar value.

Some compounds with known pIC50 results, for comparison:
CC(C)N(c1cc(-c2ccc(-c3cc4ncccn4n3)nc2)sc1C(=O)O)C(=O)[C@H]1CC[C@H](C)CC1 | 7.30 to 8.00
CC(C)N(c1cc(-c2ccc(-c3cn4ccsc4n3)nc2)sc1C(=O)O)C(=O)[C@H]1CC[C@H](C)CC1 | 6.30 to 7.00
CC(C)N(c1cc(-c2ccc(-c3nc4ncccc4o3)nc2)sc1C(=O)O)C(=O)[C@H]1CC[C@H](C)CC1 | 6.30 to 7.00
CC(C)N(C(=O)c1ccc(Cl)cc1Cl)c1cc(-c2ccc(-c3nnn[nH]3)cc2)sc1C(=O)O [Compound F, reference compound] | 5.30 to 6.00
CC(C)N(c1cc(-c2ccc(-c3nc4cc(N)ccc4o3)cc2)sc1C(=O)O)C(=O)[C@H]1CC[C@H](C)CC1 | 7.00 to 7.30
CC(C)N(c1cc(-c2ccc(-c3cn4ccccc4n3)cc2)sc1C(=O)O)C(=O)[C@H]1CC[C@H](C)CC1 | 7.00 to 7.30

Okay, now this compound:
Form: compound = Cc1ccn2nc(-c3ccc(-c4cc(N(C(=O)[C@H]5CC[C@H](C)CC5)C(C)C)c(C(=O)O)s4)cc3)cc2n1 ; pIC50 = 7.00 to 7.30

====

# Tested on: HCV replication, genotype 1a (Huh-7 HCV replicon cell)
# EXPERIMENT_NOTES: Replicon ELISA cell based assay, genotype 1a
# CONDITION: Hepatitis C virus, Huh-7 HCV replicon cells, 72 hours, mean, assayed at least twice
pIC50: −log10 of the molar value.
TEST_READOUT: pIC50

Some molecules with known pIC50 results, for comparison:
CC(C)N(c1cc(-c2ccc(-c3nc4ccc(N)cc4o3)cc2)sc1C(=O)O)C(=O)[C@H]1CC[C@H](C)CC1 | 7.00 to 7.30
CC(C)N(c1cc(-c2ccc(-c3ccc(Cl)cc3)cc2)sc1C(=O)O)C(=O)[C@H]1CC[C@H](C)CC1 [Compound C, reference compound] | 5.30 to 6.00

Okay, now this molecule:
Field pIC50 (system: HCV replication, genotype 1a (Huh-7 HCV replicon cell)) for entry CC(C)N(c1cc(-c2ccc(-c3ccn4nccc4n3)cc2)sc1C(=O)O)C(=O)[C@H]1CC[C@H](C)CC1 = 6.30 to 7.00

====

# Test system: HCV replication, genotype 1b (Huh-7 HCV replicon cell, sub-line 5-15)
# EXPERIMENT_NOTES: Replicon ELISA cell based assay, genotype 1b
# CONDITION: Hepatitis C virus, Huh-7 HCV replicon cells, genotype 1b (sub-line 5-15), 72 hours, mean, assayed at least twice
pIC50: −log10 of the molar value.
TEST_READOUT: pIC50

Some compounds with known pIC50 results, for comparison:
CC(C)N(c1cc(-c2ccc(Cl)cc2)sc1C(=O)O)C(=O)[C@H]1CC[C@H](C)CC1 [Compound B, reference compound] | 5.30 to 6.00
Cc1ccn2nc(-c3ccc(-c4cc(N(C(=O)[C@H]5CC[C@H](C(F)(F)F)CC5)C(C)C)c(C(=O)O)s4)cc3)cc2n1 | 6.00 to 6.30
CC(C)N(c1cc(-c2ccc(-c3cc4cnccc4o3)cc2)sc1C(=O)O)C(=O)[C@H]1CC[C@H](C)CC1 [Example 12] | 7.00 to 7.30
CC(C)N(c1cc(-c2ccc(-c3cn4cc(N)ccc4n3)cc2)sc1C(=O)O)C(=O)[C@H]1CC[C@H](C)CC1 | 6.30 to 7.00
CC(C)N(c1cc(-c2ccc(-c3cc4ncccn4n3)cc2)sc1C(=O)O)C(=O)[C@H]1CC[C@H](C)CC1 | 7.30 to 8.00

Report pIC50 for every entry below.
1. CC(C)N(c1cc(-c2ccc(-c3nc4ncccc4o3)cc2)sc1C(=O)O)C(=O)[C@H]1CC[C@H](C)CC1
2. CC(C)N(c1cc(-c2ccc(-c3cc4ncccn4n3)cc2)sc1C(=O)O)C(=O)[C@H]1CC[C@H](C(F)(F)F)CC1

Output line:
7.30 to 8.00
7.00 to 7.30
